Measured KD ratio (Ab1/variant Ab) values are reported for all entries that follow.
assay.target: T1, truncated wild type EGFR 1-525 (EGFR1 (1-525)-SRGPF-Myc-NMHTG-6His) (human, UniProt P00533 25-525)
T1 construct: the signal peptide is left out; not shown: Myc tag
assay.notes: SPR (Biacore), antibody captured via anti-human Fc, antigen injected
Write the number on its own, no unit after it.

Antibody H (AbH) (antibody, V domains shown, Full length IgG1) VH: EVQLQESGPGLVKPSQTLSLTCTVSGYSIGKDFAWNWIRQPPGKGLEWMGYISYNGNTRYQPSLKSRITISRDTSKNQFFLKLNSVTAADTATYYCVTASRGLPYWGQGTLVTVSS VL: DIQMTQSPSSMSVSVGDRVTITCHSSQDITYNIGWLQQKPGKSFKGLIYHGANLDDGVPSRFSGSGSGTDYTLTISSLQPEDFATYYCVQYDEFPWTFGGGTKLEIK    441
Antibody K (AbK) (antibody, V domains shown, Full length IgG1) VH: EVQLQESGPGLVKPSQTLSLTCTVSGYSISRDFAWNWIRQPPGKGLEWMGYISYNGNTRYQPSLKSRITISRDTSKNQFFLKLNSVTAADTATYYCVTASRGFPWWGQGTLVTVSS VL: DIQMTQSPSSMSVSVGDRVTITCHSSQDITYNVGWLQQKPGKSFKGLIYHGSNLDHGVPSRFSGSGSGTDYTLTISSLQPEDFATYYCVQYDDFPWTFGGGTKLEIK    1370

Given Antibody E (AbE) (antibody, V domains shown, Full length IgG1) VH: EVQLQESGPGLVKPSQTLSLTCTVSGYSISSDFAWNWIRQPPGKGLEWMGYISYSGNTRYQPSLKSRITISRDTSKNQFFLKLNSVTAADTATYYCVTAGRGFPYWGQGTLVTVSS VL: DIQMTQSPSSMSVSVGDRVTITCHSSQDINSNLGWLQQKPGKSFKGLIYHGSNLDHGVPSRFSGSGSGTDYTLTISSLQPEDFATYYCVQYDQFPWTFGGGTKLEIK , state its recorded KD ratio (Ab1/variant Ab). 3.8

Sourced from patent US20150337042A1
